Recorded DC50 by entry
- ASSAYED_SYSTEM: BTK (Homo sapiens, UniProt Q06187)
- Sequence (Q06187 whole entry): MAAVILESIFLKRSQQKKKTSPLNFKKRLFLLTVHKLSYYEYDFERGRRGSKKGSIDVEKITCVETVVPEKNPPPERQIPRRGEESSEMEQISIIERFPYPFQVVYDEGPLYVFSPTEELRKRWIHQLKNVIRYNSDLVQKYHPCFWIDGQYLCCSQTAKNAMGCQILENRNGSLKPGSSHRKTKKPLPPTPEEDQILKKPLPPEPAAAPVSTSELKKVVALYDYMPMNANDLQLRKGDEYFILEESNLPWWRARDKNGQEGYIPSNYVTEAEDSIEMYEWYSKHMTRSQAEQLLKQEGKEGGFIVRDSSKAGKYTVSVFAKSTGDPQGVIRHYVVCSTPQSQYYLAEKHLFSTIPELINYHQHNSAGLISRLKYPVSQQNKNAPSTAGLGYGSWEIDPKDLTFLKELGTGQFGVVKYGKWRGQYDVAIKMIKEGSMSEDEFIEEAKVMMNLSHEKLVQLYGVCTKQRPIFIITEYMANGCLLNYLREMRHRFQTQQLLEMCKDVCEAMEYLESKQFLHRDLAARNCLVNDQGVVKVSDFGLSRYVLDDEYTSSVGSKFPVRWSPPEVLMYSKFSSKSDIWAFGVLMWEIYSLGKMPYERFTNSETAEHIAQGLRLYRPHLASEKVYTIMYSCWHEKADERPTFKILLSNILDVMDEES
- ASSAY_OVERVIEW: BTK degradation, DC50 and Dmax of Table 1 (cell line not given)
- Format: cell-based
- Set-up: endogenous in cells
- ASSAY_SETUP: concentration giving 50% reduction of BTK expression level

Sample records with DC50:
[[record]]
compound = "Nc1ncnc2c1c(-c1ccc(Oc3ccccc3)cc1)nn2[C@@H]1CCCN(CC2CCN(C(=O)N3CCC(CN4CCN(c5ccc6c(c5)CN(C5CCC(=O)NC5=O)C6=O)CC4)CC3)CC2)C1 (some centres unmarked)"
parameter = "DC50"
endpoint_result = "10 to 50 nM"

[[record]]
compound = "Nc1ncnc2c1c(-c1ccc(Oc3ccccc3)cc1)nn2[C@@H]1CCCN(C(=O)N2CCC(CCN3CCN(c4ccc5c(c4)C(=O)N(C4CCC(=O)NC4=O)C5=O)CC3)CC2)C1 (some centres unmarked)"
parameter = "DC50"
endpoint_result = "< 10 nM"

[[record]]
compound = "Nc1ncnc2c1c(-c1ccc(Oc3ccccc3)cc1)nn2[C@@H]1CCCN(C2CCN(CCN3CCN(c4ccc5c(c4)C(=O)N(C4CCC(=O)NC4=O)C5=O)CC3)CC2)C1 (some centres unmarked)"
parameter = "DC50"
endpoint_result = "10 to 50 nM"


Read off the recorded DC50 for Nc1ncnc2c1c(-c1ccc(Oc3ccccc3)cc1)nn2C1CCCN(CCOCCOCCC2CCN(c3ccc4c(c3)C(=O)N(C3CCC(=O)NC3=O)C4=O)CC2)C1 (centres unmarked)
< 10 nM

Read off the recorded DC50 for Nc1ncnc2c1c(-c1ccc(Oc3ccccc3)cc1)nn2[C@@H]1CCCN(C(=O)N2CCC(c3ccc4c(c3)CN(C3CCC(=O)NC3=O)C4=O)CC2)C1 (some centres unmarked)
> 50 nM

---

- ASSAYED_SYSTEM: BTK (Homo sapiens, UniProt Q06187)
- ASSAY_OVERVIEW: BTK degradation, DC50 and Dmax of Table 1 (cell line not given)
- Type: cell-based
- Set-up: endogenous in cells
- ASSAY_SETUP: concentration giving 50% reduction of BTK expression level
Recorded DC50 by entry

Sample records with DC50:
[[record]]
compound = "Nc1ncnc2c1c(-c1ccc(Oc3ccccc3)cc1)nn2[C@@H]1CCCN(CC2CCN(CCCN3CCN(c4ccc5c(c4)CN(C4CCC(=O)NC4=O)C5=O)CC3)CC2)C1 (some centres unmarked)"
endpoint_result = "10 to 50 nM"

[[record]]
compound = "Nc1ncnc2c1c(-c1ccc(Oc3ccccc3)cc1)nn2[C@@H]1CCCN(C(=O)N2CCN(c3ccc4c(c3)C(=O)N(C3CCC(=O)NC3=O)C4=O)CC2)C1 (some centres unmarked)"
endpoint_result = "> 50 nM"

[[record]]
compound = "Nc1ncnc2c1c(-c1ccc(Oc3ccccc3)cc1)nn2C1CCN(C(=O)N2CCC(CN3CCC(c4ccc5c(c4)CN(C4CCC(=O)NC4=O)C5=O)CC3)CC2)CC1 (centres unmarked)"
endpoint_result = "< 10 nM"

[[record]]
compound = "Nc1ncnc2c1c(-c1ccc(Oc3ccccc3)cc1)nn2[C@@H]1CCCN(C(=O)N2CCC(CCCN3CCN(c4ccc5c(c4)C(=O)N(C4CCC(=O)NC4=O)C5=O)CC3)CC2)C1 (some centres unmarked)"
endpoint_result = "> 50 nM"


Read off the recorded DC50 for Nc1ncnc2c1c(-c1ccc(Oc3ccccc3)cc1)nn2C1CCCN(CCOCCOCCC2CCN(c3ccc4c(c3)CN(C3CCC(=O)NC3=O)C4=O)CC2)C1 (centres unmarked)
< 10 nM

# credit: patent US12139492B2
